B1: tRNA (parent)
chain: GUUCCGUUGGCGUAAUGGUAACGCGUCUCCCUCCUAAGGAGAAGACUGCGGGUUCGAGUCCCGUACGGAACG

# Variants of: B1
# protocol-description: yeast fitness relative to wild type (ratio to wild type); higher = fitter; tRNA-Arg(CCU), competitive growth, 37 C, YPD
Fewer inactive variants are shown than the library holds.
# yeast fitness per entry

polymer-sequence	value-observed
GUUACGUUGGCGUAAUGGUAACCCGUCUCCUUCCUCAGGAGACGACUGCCGGUUCGAGUCCCGUACGGAUCG	≤ 0.5

Which yeast fitness is reported for this variant? `GUUCCGUUGGCGUAAUGGUAACGCGUCUGUCUCCUAAGGAGAAGACUGCGGGUUCGAGUCCCGUGCGGAACG` ≤ 0.5

Subsequent entry: `GUUCCGUUGGCGUAAUGGUACCGCGUCUCCAUGCUAAGGAGAAGGCUACGGGUUCGAGUCCCGUUCGGAACG` ≤ 0.5

Quick one: `GUUCCGUUGGCGUAGUCGUAACGCGUCUCCCUCCUAAGGAGAAGACUGCGGGUUCGAGUCACGUACGGAACG` ≤ 0.5

Another: `GUUCCGUUGGCGUAAUGGUAACGCAUCUCCCUCCUAAGGAGAAGACUGCGGUUUCGAGUCCCGUACGGAACG` 0.627

`GUUCCGUUGGCGUAAUGCUAACGCGUCUCCCUCCUAAGGAGAAGACUGCGGGUUCGAGUCCCAUACGGAACG` ? 0.535

Request: `GUUCCGUUGGCGUAAUGGUAACGCGUCUCCCUCCUAGGGAGAAGACUGCGGGUUCGUGUCCCGUACGGAACG` 0.55

Likewise for `GUUCCGUUGGCGUAAUGGUAACGCGUCUCCCUCCUAACGAGAAAACUGCGGGUUCGAGUCCCGUGCGGAACG` ? ≤ 0.5

# repeat for `GUUCUGUUGGCGUAAAGGUAACGCGUCUCCCUCAUAAGGAGAAGACUGCGGGUUCGAGUCCCGUACGGAGCG` ≤ 0.5

Subsequent entry: `GUUCCGUUGGCGUAAUGGUAACGCGGCUCCCUCCUAAGGAGAAGACUGCGGGUUCGAGCCCCGUACGGAACG` 0.936

Quick one: `GUUACGUUGGCGUAAUGGUAACGCGUCUCCCUCCUAUGGAGAAGACUGCCGGUUCGAGUCCCGUACGGAACG` ≤ 0.5

Note, next up: `GUUCCGUUGGAGUAAUGGGAACGCGUCUCCCUCCUGAGGAGAAGACUGCGGGUCCGAGUCCCGUAUGGCACG` ≤ 0.5
